B1: TNXB (parent)
chain: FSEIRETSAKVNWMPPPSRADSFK

Variants of: B1
assay.method.text: protein stability index of a GFP-peptide fusion (GPS, HEK-293T) (PSI 1-6); higher = more stable;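 also: lentivirally expressed fusions sorted by FACS into six bins by GFP to DsRed ratio, PSI derived from sequencing read proportions per bin multiplied by bin number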
measurement.setup: c terminus: a fixed tail appended
experimental.endpoint: protein stability index
Could you respond with only the numeric value?

entry_sequence="FSEIRETSAKVNWMPPPLRADSFK [S18L]" experimental_endpoint="protein stability index" val=2.75

Read the next record carefully.
Documented protein stability index of FFEIRETSAKVNWMPPPSRADSFK [S2F] : 2.65
